System: Staphylococcus aureus cultures
Test: Agar dilution susceptibility test, phenylthioacetyl cephalosporins vs methicillin resistant S. aureus (Example 9)
Format: cell-based
Details: Staphylococcus aureus, culture Kavarmark 1138501; table part marked b; read-out: MIC
Excerpt: This example compares the antibiotic activities of three known compounds, methicillin, cephalothin, and cephaloridine, with three compounds from the above examples, in terms of minimum inhibitory concentration (MIC) values in microgram/milliliter units against various isolates of Staphylococcus aureus cultures. […]
quantity-name: MIC (µg/mL)

See these solved cases before continuing.
- molecule: "O=C(Cc1cccs1)N[C@@H]1C(=O)N2C(C(=O)[O-])=C(C[n+]3ccccc3)CS[C@H]12 [Cephaloridine, cephaloridine, reference compound]"
  MIC / µg/mL: 1
- molecule: "CC(=O)OCC1=C(C(=O)O)N2C(=O)C(NC(=O)CSc3cc(Cl)ccc3Cl)C2SC1 (centres unmarked)"
  MIC / µg/mL: 0.5
- molecule: "CC(=O)OCC1=C(C(=O)O)N2C(=O)C(NC(=O)CSc3ccc(Cl)c(Cl)c3)C2SC1 (centres unmarked)"
  MIC / µg/mL: 0.5

[1] CC(=O)OCC1=C(C(=O)O)N2C(=O)C(NC(=O)CSc3cc(Cl)cc(Cl)c3)C2SC1 (centres unmarked)
[2] COc1cccc(OC)c1C(=O)N[C@@H]1C(=O)N2[C@@H]1SC(C)(C)[C@@H]2C(=O)O
*Q* Please state the entry with greater MIC among 1 and 2 . Pick one; state its label.
*A* 2
(2: 8 µg/mL, 1: 0.5 µg/mL)

Source: patent US4175125A
